Entry source: the RepoRT retention time repository (doi:10.1039/c6ra10883k)

# Test: Phenomenex Kinetex XB-C18, 100 × 2.1 mm, 1.7 µm, 35 °C, 0.3 mL/min, estimated dead time 0.73 min; A: water + 0.1% formic acid; B: acetonitrile + 0.1% formic acid; gradient (min/%B) 0/5 1/5 2/10 9/33 15/46 16/70 21/90 22/90
# Condition parameters: stereoisomer not certain
Field 'label' (enum: yes / no). Set to yes when LC retention time is strictly under 10 min; else no.

Incoming: Given CC(C)=CCCC(C)(OC1OC(COC2OC(CO)C(O)C(O)C2O)C(O)C(O)C1O)C1CCC2(C)C1C(O)CC1C3(C)CCC(OC4OC(CO)C(O)C(O)C4OC4OC(CO)C(O)C(O)C4O)C(C)(C)C3CCC12C (configuration not stated) , is recorded LC retention time strictly lower than 10 min?
Outgoing: no

Incoming: Criterion: LC retention time strictly below 10 min. Is it met by CC1(C)CCC2(C(=O)OC3OC(CO)C(O)C(O)C3O)CCC3(C)C(=CCC4C5(C)CCC(OC6OC(C(=O)O)C(O)C(O)C6OC6OC(CO)C(O)C(O)C6O)C(C)(C)C5CCC43C)C2C1 (configuration not stated) ?
Outgoing: no

Incoming: Below 10 min on LC retention time? Entry CC1OC(OCC2OC(Oc3c(-c4ccc(O)c(O)c4)oc4cc(O)cc(O)c4c3=O)C(O)C(O)C2O)C(O)C(O)C1O (configuration not stated)
Outgoing: yes

Incoming: Confirm or reject: LC retention time of CCCC=C1OC(=O)C2=C1CCC=C2 lies strictly below 10 min
Outgoing: no

Incoming: Lab note: LC retention time threshold 10 min. Does this compound come in strictly under it? CC(C)=CCCC(C)(OC1OC(CO)C(O)C(O)C1O)C1CC(C)C2(C)C3CC(OC4OC(CO)C(O)C(O)C4OC4OC(CO)C(O)C(O)C4O)C4C(C)(C)C(O)CCC4(C)C3CC(O)C12 (configuration not stated)
Outgoing: yes

Incoming: For this compound, is LC retention time lower than 10 min? CC(C)=CCCC(C)(OC1OC(CO)C(O)C(O)C1O)C1CCC2(C)C1C(O)CC1C3(C)CCC(O)C(C)(C)C3C(OC3OC(CO)C(O)C(O)C3O)CC12C (configuration not stated)
Outgoing: yes

Incoming: Strictly below 10 min in LC retention time? CC(C)=CCCC(C)(OC1OC(CO)C(O)C(O)C1O)C1CCC2(C)C1C(O)CC1C3(C)CCC(OC4OC(CO)C(O)C(O)C4OC4OC(COC(=O)CC(=O)O)C(O)C(O)C4O)C(C)(C)C3CCC12C (configuration not stated)
Outgoing: no

Incoming: Is 10 min strictly greater than the compound's reported LC retention time? compound: C=C(CCC=C(C)C)C1CCC2(C)C1C(O)CC1C3(C)CCC(O)C(C)(C)C3C(OC3OC(CO)C(O)C(O)C3O)CC12C (configuration not stated)
Outgoing: no

Incoming: Find out if reported LC retention time for O=C(C=Cc1ccc(O)c(O)c1)OC1CC(O)(C(=O)O)CC(OC(=O)C=Cc2ccc(O)c(O)c2)C1O (configuration not stated) is less than 10 min
Outgoing: yes

Incoming: State whether 10 min exceeds LC retention time recorded for CC(C)=CCCC(C)(OC1OC(CO)C(O)C(O)C1O)C1CCC2(C)C1C(O)CC1C3(C)CCC(OC4OC(COC5OC(CO)C(O)C(O)C5O)C(O)C(O)C4O)C(C)(C)C3CCC12C (configuration not stated) .
Outgoing: no

Incoming: LC retention time strictly < 10 min for this compound? CC(C)=CCCC(C)(O)C1CCC2(C)C1C(O)CC1C3(C)CCC(O)C(C)(C)C3C(OC3OC(CO)C(O)C(O)C3OC3OC(C)C(O)C(O)C3O)CC12C (configuration not stated)
Outgoing: no

Incoming: Is it true that LC retention time reported for CC(C)=CCCC(C)(OC1OC(COC2OC(CO)C(O)C2O)C(O)C(O)C1O)C1CCC2(C)C1C(O)CC1C3(C)CCC(OC4OC(CO)C(O)C(O)C4OC4OC(CO)C(O)C(O)C4O)C(C)(C)C3CCC12C (configuration not stated) is less than 10 min?
Outgoing: no
